experiment: Oral bioavailability in Sprague-Dawley rat at 25 mg/kg measured during 1 to 24 hrs by LC-MS method; type: ADME, organism-based; conditions: in vivo
assay metric: bioavailability (%)
Please give a number only; it is taken to be in %.

q: Which measured bioavailability value corresponds to CCc1cc(OC(F)(F)F)cc2c1OC(C(F)(F)F)C(C(=O)O)=C2 (stereo unspecified) ?
a: 78.6

* * *

assay: Cmax in Sprague-Dawley rat at 10 mg/kg, po measured during 1 to 24 hrs by LC-MS method; format: ADME, organism-based; set-up: dose 10 mg/kg, route oral; conditions: in vivo
# reported Cmax; entries follow
Number plus unit, in that order.

q: Which measured Cmax value corresponds to Cc1cc2c(c(C)c1Cl)C=C(C(=O)O)C(C(F)(F)F)O2 (configuration not stated) ?
a: 6590 ng/mL

Could you now consider this next molecule?
q: Which measured Cmax value corresponds to CC(C)(C)c1cc2c(cc1Cl)C=C(C(=O)O)[C@@H](C(F)(F)F)O2 ?
a: 8150 ng/mL

* * *

test system: Rattus norvegicus; assay: AUC (0 to infinity) in Sprague-Dawley rat at 2.5 mg/kg, po measured during 1 to 24 hrs by LC-MS method; assay type: ADME, organism-based, Plasma; set-up: dose 2.5 mg/kg, route oral, time infinity; settings: in vivo
assay metric: AUC (µg/L.hr)
Please give a number only; it is taken to be in µg/L.hr.

q: Which measured AUC value corresponds to [2H]C([2H])([2H])c1cc(Cl)cc2c1OC(C(F)(F)F)C(C(=O)O)=C2 (configuration not stated) ?
a: 38900

* * *

assay: Apparent oral clearance in Sprague-Dawley rat at 10 mg/kg, iv measured during 1 to 24 hrs by LC-MS method; type: ADME, organism-based; parameters: dose 10 mg/kg, route oral; conditions: in vivo
assay metric: CL/F
Number plus unit, in that order.

q: Which measured CL/F value corresponds to [2H]C([2H])([2H])C([2H])([2H])c1cc(OC(F)(F)F)cc2c1OC(C(F)(F)F)C(C(=O)O)=C2 (stereo unspecified) ?
a: 0.783 mL/min/kg

* * *

experiment: Cmax in Sprague-Dawley rat at 2.5 mg/kg, po measured during 1 to 24 hrs by LC-MS method; format: ADME, organism-based; parameters: dose 2.5 mg/kg, route oral; conditions: in vivo
assay metric: Cmax
Number plus unit, in that order.

q: Which measured Cmax value corresponds to Cc1cc2c(c(C)c1Br)C=C(C(=O)O)C(C(F)(F)F)O2 (configuration not stated) ?
a: 5340 ng/mL

Could you now consider this next molecule?
q: Which measured Cmax value corresponds to Cc1cc(Cl)cc2c1OC(C(F)(F)F)C(C(=O)O)=C2 (configuration not stated) ?
a: 2720 ng/mL

* * *

assay: Volume of distribution in Sprague-Dawley rat at 1 mg/kg, iv measured during 1 to 24 hrs by LC-MS method; assay type: ADME, organism-based; parameters: dose 1 mg/kg, route intravenous; details: in vivo
assay metric: Vd

In the examples that follow, each entry is paired with its recorded Vd.
q: Which measured Vd value corresponds to Cc1cc2c(c(C)c1Br)C=C(C(=O)O)C(C(F)(F)F)O2 (centres undefined) ?
a: 0.38 L/kg

q: Which measured Vd value corresponds to Cc1cc2c(c(C)c1Cl)C=C(C(=O)O)C(C(F)(F)F)O2 (centres undefined) ?
a: 0.45 L/kg

q: Which measured Vd value corresponds to [2H]C([2H])([2H])c1cc(Cl)cc2c1OC(C(F)(F)F)C(C(=O)O)=C2 (centres undefined) ?
a: 0.404 L/kg

Could you now consider this next compound?
q: Which measured Vd value corresponds to Cc1cc(Cl)cc2c1OC(C(F)(F)F)C(C(=O)O)=C2 (centres undefined) ?
a: 0.59 L/kg

* * *

# reported EC50; entries follow
system: Rattus norvegicus; experiment: Antiinflammatory activity in orally dosed Sprague-Dawley rat model of carrageenan-induced foot paw edema assessed as reduction in edema by plethysmometry; type: functional, organism-based

In the examples that follow, each entry is paired with its recorded EC50.
q: Which measured EC50 value corresponds to [2H]C([2H])([2H])c1cc2c(c(C([2H])([2H])[2H])c1Cl)C=C(C(=O)O)C(C(F)(F)F)O2 (stereo unspecified) ?
a: 5.18 mg/kg

q: Which measured EC50 value corresponds to [2H]C([2H])([2H])c1cc(Br)cc2c1OC(C(F)(F)F)C(C(=O)O)=C2 (stereo unspecified) ?
a: 3 mg/kg

q: Which measured EC50 value corresponds to [2H]C([2H])([2H])c1cc(Cl)cc2c1OC(C(F)(F)F)C(C(=O)O)=C2 (stereo unspecified) ?
a: 6.48 mg/kg

New cases:
q: Which measured EC50 value corresponds to Cc1ccc(-c2cc(C(F)(F)F)nn2-c2ccc(S(N)(=O)=O)cc2)cc1 ?
a: 2.81 mg/kg

q: Which measured EC50 value corresponds to Cc1cc(Br)cc2c1OC(C(F)(F)F)C(C(=O)O)=C2 (stereo unspecified) ?
a: 3.47 mg/kg

q: Which measured EC50 value corresponds to [2H]C([2H])([2H])c1cc2c(c(C([2H])([2H])[2H])c1Br)C=C(C(=O)O)C(C(F)(F)F)O2 (stereo unspecified) ?
a: 2.26 mg/kg

* * *

assay: Cmax in Sprague-Dawley rat at 30 mg/kg, po measured during 1 to 24 hrs by LC-MS method; format: ADME, organism-based; design: dose 30 mg/kg, route oral; details: in vivo
assay metric: Cmax (ng/mL)
Please give a number only; it is taken to be in ng/mL.

q: Which measured Cmax value corresponds to [2H]C([2H])([2H])C([2H])([2H])c1cc(OC(F)(F)F)cc2c1OC(C(F)(F)F)C(C(=O)O)=C2 (stereo unspecified) ?
a: 33500

* * *

experiment: Apparent oral clearance in Sprague-Dawley rat at 5 mg/kg, po measured during 1 to 24 hrs by LC-MS method; assay type: ADME, organism-based; design: dose 5 mg/kg, route oral; conditions: in vivo
assay metric: CL/F

q: Which measured CL/F value corresponds to Cc1cc(Br)cc2c1OC(C(F)(F)F)C(C(=O)O)=C2 (stereo unspecified) ?
a: 4.97 mL/min/kg

* * *

test: Cmax in Sprague-Dawley rat at 2.5 mg/kg, iv measured during 1 to 24 hrs by LC-MS method; assay type: ADME, organism-based; parameters: dose 2.5 mg/kg, route intravenous; conditions: in vivo
assay metric: Cmax (ng/mL)
Please give a number only; it is taken to be in ng/mL.

q: Which measured Cmax value corresponds to Cc1cc(Br)cc2c1OC(C(F)(F)F)C(C(=O)O)=C2 (stereo unspecified) ?
a: 38600

* * *

tested on: Rattus norvegicus; experiment: Half life in Sprague-Dawley rat at 1 mg/kg, iv measured during 1 to 24 hrs by LC-MS method; format: ADME, organism-based; set-up: dose 1 mg/kg, route intravenous; settings: in vivo
assay metric: t1/2
Number plus unit, in that order.

q: Record lookup: for Rattus norvegicus, what t1/2 belongs to Cc1cc2c(c(C)c1Br)C=C(C(=O)O)C(C(F)(F)F)O2 (centres undefined) ?
a: 2.3 h

q: Record lookup: for Rattus norvegicus, what t1/2 belongs to Cc1cc2c(c(C)c1Cl)C=C(C(=O)O)C(C(F)(F)F)O2 (centres undefined) ?
a: 1.5 h

q: Record lookup: for Rattus norvegicus, what t1/2 belongs to Cc1cc(Cl)cc2c1OC(C(F)(F)F)C(C(=O)O)=C2 (centres undefined) ?
a: 0.59 h

Could you now consider this next compound?
q: Record lookup: for Rattus norvegicus, what t1/2 belongs to [2H]C([2H])([2H])c1cc(Cl)cc2c1OC(C(F)(F)F)C(C(=O)O)=C2 (centres undefined) ?
a: 3.909 h

* * *

test: Apparent oral clearance in Sprague-Dawley rat at 30 mg/kg, po measured during 1 to 24 hrs by LC-MS method; type: ADME, organism-based; set-up: dose 30 mg/kg, route oral; conditions: in vivo
assay metric: CL/F (mL/min/kg)
Please give a number only; it is taken to be in mL/min/kg.

q: Which measured CL/F value corresponds to [2H]C([2H])([2H])C([2H])([2H])c1cc(OC(F)(F)F)cc2c1OC(C(F)(F)F)C(C(=O)O)=C2 (stereo unspecified) ?
a: 1.25

* * *

biological target: Prostaglandin G/H synthase 2 (Homo sapiens, UniProt P35354); test: Inhibition of human recombinant COX2 pre-incubated for 15 mins before fluorometric substrate addition by fluorescence based assay
Sequence (P35354 whole entry): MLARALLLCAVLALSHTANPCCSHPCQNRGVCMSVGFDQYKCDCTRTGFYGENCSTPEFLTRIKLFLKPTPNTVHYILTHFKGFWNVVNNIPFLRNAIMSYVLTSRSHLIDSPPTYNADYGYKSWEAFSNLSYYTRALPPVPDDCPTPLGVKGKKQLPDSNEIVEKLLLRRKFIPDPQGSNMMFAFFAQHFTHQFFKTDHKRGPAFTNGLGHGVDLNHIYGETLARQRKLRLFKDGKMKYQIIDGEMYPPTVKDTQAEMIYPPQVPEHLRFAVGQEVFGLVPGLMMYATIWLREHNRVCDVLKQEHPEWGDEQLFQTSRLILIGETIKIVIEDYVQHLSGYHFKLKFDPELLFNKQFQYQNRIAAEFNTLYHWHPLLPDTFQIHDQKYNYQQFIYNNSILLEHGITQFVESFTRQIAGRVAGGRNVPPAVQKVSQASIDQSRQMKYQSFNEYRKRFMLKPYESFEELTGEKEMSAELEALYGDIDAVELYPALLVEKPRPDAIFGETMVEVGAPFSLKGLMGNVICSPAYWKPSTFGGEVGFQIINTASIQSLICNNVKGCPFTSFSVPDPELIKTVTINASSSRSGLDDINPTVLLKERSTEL
assay metric: pIC50
# log scale: pIC50 equals minus log10 of the concentration in mol/L

q: Record lookup: for Prostaglandin G/H synthase 2 (Homo sapiens, UniProt P35354), what pIC50 belongs to [2H]C([2H])([2H])c1cc2c(c(C([2H])([2H])[2H])c1Br)C=C(C(=O)O)[C@@H](C(F)(F)F)O2 ?
a: 8.05

New cases:
q: Record lookup: for Prostaglandin G/H synthase 2 (Homo sapiens, UniProt P35354), what pIC50 belongs to [2H]C([2H])([2H])c1cc2c(c(C([2H])([2H])[2H])c1Br)C=C(C(=O)O)C(C(F)(F)F)O2 (stereo unspecified) ?
a: 7.37

q: Record lookup: for Prostaglandin G/H synthase 2 (Homo sapiens, UniProt P35354), what pIC50 belongs to [2H]C([2H])([2H])c1cc(Br)cc2c1OC(C(F)(F)F)C(C(=O)O)=C2 (stereo unspecified) ?
a: 7.41

q: Record lookup: for Prostaglandin G/H synthase 2 (Homo sapiens, UniProt P35354), what pIC50 belongs to Cc1c(Br)c(C)c2c(c1Br)OC(C(F)(F)F)C(C(=O)O)=C2 (stereo unspecified) ?
a: 7.16

q: Record lookup: for Prostaglandin G/H synthase 2 (Homo sapiens, UniProt P35354), what pIC50 belongs to Cc1cc(Br)cc2c1OC(C(F)(F)F)C(C(=O)O)=C2 (stereo unspecified) ?
a: 7.55

q: Record lookup: for Prostaglandin G/H synthase 2 (Homo sapiens, UniProt P35354), what pIC50 belongs to Cc1cc2c(c(C)c1Br)C=C(C(=O)O)C(C(F)(F)F)O2 (stereo unspecified) ?
a: 6.72
